Recorded OX2R agonist activity (3 μM, %), one value per entry.
SUBJECT OF TEST: human orexin type 2 receptor (Homo sapiens)
Construct: human orexin type 2 receptor cDNA was inserted into pcDNA3.1(+) plasmid vector (Invitrogen); expressed in transfected cells
Sequence (O43614 whole entry): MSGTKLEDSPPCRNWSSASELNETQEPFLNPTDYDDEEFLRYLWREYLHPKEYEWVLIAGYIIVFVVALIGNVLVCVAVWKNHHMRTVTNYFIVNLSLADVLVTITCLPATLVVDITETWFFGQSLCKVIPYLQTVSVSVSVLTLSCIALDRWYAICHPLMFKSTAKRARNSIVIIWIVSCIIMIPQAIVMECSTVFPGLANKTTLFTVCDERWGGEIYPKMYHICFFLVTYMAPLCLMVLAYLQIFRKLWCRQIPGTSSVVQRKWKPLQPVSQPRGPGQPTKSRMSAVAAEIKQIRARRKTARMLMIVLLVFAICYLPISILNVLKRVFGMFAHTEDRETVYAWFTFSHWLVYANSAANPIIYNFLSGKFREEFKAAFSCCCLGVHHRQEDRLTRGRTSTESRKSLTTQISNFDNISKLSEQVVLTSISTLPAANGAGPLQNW
PROCEDURE TEXT: Measurement of orexin type 2 receptor agonist activity (calcium fluorescence, CHO cells expressing hOX2R)
Format: cell-based
CONDITION INFO: test compound 3 μM; CHO cells expressing human OX2 receptor; DMSO = 0%, orexin A (human) = 100%
Give your result in % as a bare value.

Examples with answers:
COMPOUND | OX2R agonist activity (3 μM, %)
CC(C)OC(=O)N1CCC[C@H](NS(C)(=O)=O)[C@@H]1Cc1cccc(-c2ccccc2)c1 (relative stereo) | 97
CCS(=O)(=O)N[C@H]1CCN(C(=O)C(C)(C)O)[C@H]1Cc1cccc(-c2cccc(F)c2)c1F [Example 482] | 110
CC(C)(O)C(=O)N1CC[C@H](NS(C)(=O)=O)[C@@H]1Cc1cccc(-c2cc(F)cc(F)c2)c1F [Example 395] | 104
CS(=O)(=O)N[C@H]1CCN(C(=O)C2CCC2)[C@H]1Cc1cc(F)cc(-c2ccccc2)c1 (relative stereo) | 100
COC(=O)N1CCC[C@H](NS(C)(=O)=O)[C@@H]1Cc1cccc(-c2ccsc2)c1 (relative stereo) | 65

Below: the item to evaluate.
The value of OX2R agonist activity (3 μM, %) measured for the compound CCOC(=O)N1CC[C@H](NS(C)(=O)=O)[C@@H]1Cc1cccc(-c2ccccc2)c1 turned out to be 96

---

OX2R agonist activity (3 μM, %) overview
SUBJECT OF TEST: human orexin type 2 receptor (Homo sapiens)
Construct: human orexin type 2 receptor cDNA was inserted into pcDNA3.1(+) plasmid vector (Invitrogen); expressed in transfected cells
PROCEDURE TEXT: Measurement of orexin type 2 receptor agonist activity (calcium fluorescence, CHO cells expressing hOX2R)
Type: cell-based
CONDITION INFO: test compound 3 μM; CHO cells expressing human OX2 receptor; DMSO = 0%, orexin A (human) = 100%
Give your result in % as a bare value.

MOLECULE | UNIT DESCRIPTOR | QUANTITATIVE RESULT
COC(=O)N1CCC[C@H](NS(C)(=O)=O)[C@@H]1Cc1cccc(C2CCC2)c1 (relative stereo) [Example 60] | % | 26
CS(=O)(=O)N[C@H]1CCN(C(=O)C2CCC2)[C@H]1Cc1csc(-c2cccc(F)c2)n1 (relative stereo) [Example 254] | % | 101
CCS(=O)(=O)N[C@H]1CCN(C(=O)C23CC(C2)C3)[C@H]1Cc1csc(-c2cc(F)cc(F)c2)n1 (relative stereo) [Example 318] | % | 102
CN(C)C(=O)N1CCC[C@H](NS(C)(=O)=O)[C@@H]1Cc1cccc(-c2ccccc2)c1 (relative stereo) [Example 204] | % | 95

Form: molecule = CCS(=O)(=O)N[C@H]1CCN(C(=O)N(C)C)[C@H]1Cc1cccc(-c2cc(F)cc(F)c2)c1F [Example 487] ; OX2R agonist activity (3 μM, %) = 104

response.value for CCS(=O)(=O)N[C@H]1CCN(C(=O)C2(C)CCC2)[C@H]1Cc1csc(-c2cc(F)cc(F)c2)n1 (relative stereo) [Example 316] (field: OX2R agonist activity (3 μM, %)) = 104

Consider O=C(N1CCC1)N1CC[C@H](NS(=O)(=O)CF)[C@@H]1Cc1cccc(-c2ccccc2)c1 [Example 460] . Its measured OX2R agonist activity (3 μM, %) is 92

Cc1cccc(-c2cccc(C[C@H]3[C@@H](NS(C)(=O)=O)CCN3C(=O)C3CCC3)c2)c1 [Example 311] yielded OX2R agonist activity (3 μM, %) of 103

OX2R agonist activity (3 μM, %) measured on CCNC(=O)N1CCC[C@H](NS(C)(=O)=O)[C@@H]1Cc1cccc(-c2ccccc2)c1 (relative stereo) [Example 3] = 101

The molecule identified as CC(C)OC(=O)N1CCC[C@H](NS(C)(=O)=O)[C@@H]1Cc1cccc(-c2cc(F)ccc2F)n1 (relative stereo) [Example 100] registered its OX2R agonist activity (3 μM, %) at 107

Lookup result for CS(=O)(=O)N[C@H]1CCCN(C(=O)Oc2ccccc2)[C@H]1Cc1cccc(-c2ccccc2)c1 (relative stereo) [Example 145] ; measured OX2R agonist activity (3 μM, %): 24

The molecule listed as CC(C)C(=O)N1CC[C@H](NS(C)(=O)=O)[C@@H]1Cc1cccc(-c2cccc(F)c2)c1F (relative stereo) [Example 294] has a reported OX2R agonist activity (3 μM, %) of 104

# OX2R agonist activity (3 μM, %) of CCS(=O)(=O)N[C@H]1CCN(C(=O)C(C)(C)O)[C@H]1Cc1cccc(-c2cccc(F)c2)c1F [Example 488] = 101

So for CS(=O)(=O)N[C@H]1CCN(C(=O)C2CCC2)[C@H]1Cc1cccc(-c2cc(F)cc(F)c2)c1 [Example 310] , the logged OX2R agonist activity (3 μM, %) turned out to be 102

Short answer for CS(=O)(=O)N[C@H]1CCN(C(=O)C2CCC2)[C@H]1Cc1csc(-c2cc(F)cc(F)c2)n1 (relative stereo) [Example 258] : OX2R agonist activity (3 μM, %) was 95

Short answer for CCS(=O)(=O)N[C@H]1CCN(C(=O)C(C)(C)O)[C@H]1Cc1cccc(-c2cc(F)cc(F)c2)c1F [Example 484] : OX2R agonist activity (3 μM, %) was 112

OX2R agonist activity (3 μM, %) for CCS(=O)(=O)N[C@H]1CCN(C(=O)C2CCC2)[C@H]1Cc1csc(-c2cc(F)cc(F)c2)n1 (relative stereo) [Example 315] is 105

Short answer for COC(=O)N1CCC[C@H](NS(C)(=O)=O)[C@@H]1Cc1cccc(-c2cccc(F)c2)c1 (relative stereo) [Example 14] : OX2R agonist activity (3 μM, %) was 82

Recorded result, CCS(=O)(=O)N[C@H]1CCN(C(=O)C(C)(C)O)[C@H]1Cc1cccc(-c2cc(F)cc(Cl)c2)c1F [Example 437] , OX2R agonist activity (3 μM, %): 99

# OX2R agonist activity (3 μM, %) (molecule: CC(C)C(=O)N1CC[C@H](NS(C)(=O)=O)[C@@H]1Cc1cccc(-c2ccccc2)c1 (relative stereo) [Example 209] ) is 106
